Values compiled from patent US8912179B2.

- System: rats
- test.description: Morris water maze, reversal of scopolamine induced amnesia
- Format: in vivo, rat
- stated.conditions: p.o., dose giving reversal
endpoint.name: Reversal of Scopolamine Induced amnesia

- O=C(C1CC1)N1CCc2nc(OC3CCN(C4CCC4)CC3)sc2C1.O=C(O)C(O)C(O)C(=O)O [Example 4]: ≦10 mg/kg, p.o.
- CCC(=O)N1CCc2nc(OC3CCN(C4CCC4)CC3)sc2C1.O=C(O)C(O)C(O)C(=O)O [Example 1]: ≦10 mg/kg, p.o.

---

- test.description: Rodent pharmacokinetic study
- Format: in vivo, Male Wistar rats
- stated.conditions: whole blood; Wistar male rat, per oral 3 mg/kg vs intravenous 1 mg/kg
endpoint.name: bioavailability (%)

• CC(C)C(=O)N1CCc2nc(OC3CCN(C4CCC4)CC3)sc2C1.O=C(O)C(O)C(O)C(=O)O [Example 22] = 65
• CCC(=O)N1CCc2nc(OC3CCN(C4CCC4)CC3)sc2C1.O=C(O)C(O)C(O)C(=O)O [Example 1] = 49
• O=C(C1CCOCC1)N1CCc2nc(OC3CCN(C4CCC4)CC3)sc2C1 [Example 28] = 82
• O=C(C1CCC1)N1CCc2nc(OC3CCN(C4CCC4)CC3)sc2C1.O=C(O)C(O)C(O)C(=O)O [Example 5] = 25
• O=C(C1CC1)N1CCc2nc(OC3CCN(C4CCC4)CC3)sc2C1.O=C(O)C(O)C(O)C(=O)O [Example 4] = 39
• O=C(CN1CCOCC1)N1CCc2nc(OC3CCN(C4CCC4)CC3)sc2C1.O=C(O)C(O)C(O)C(=O)O [Example 12] = 43

---

// values below are reported Kp
- test.description: Rodent brain penetration study
- Assay type: in vivo, Male Wister rats
- stated.conditions: brain / whole blood; Wistar male rat; one value per compound, table lists intravenous 1 mg/kg and per oral 3 mg/kg, water; read-out: Brain Penetration Ratio (Cb/Cp)
endpoint.name: Kp

- CC(C)C(=O)N1CCc2nc(OC3CCN(C4CCC4)CC3)sc2C1.O=C(O)C(O)C(O)C(=O)O [Example 22, tartrate]: 2.1
- O=C(C1CC1)N1CCc2nc(OC3CCN(C4CCC4)CC3)sc2C1.O=C(O)C(O)C(O)C(=O)O [Example 4, tartrate]: 2.17
- CCC(=O)N1CCc2nc(OC3CCN(C4CCC4)CC3)sc2C1.O=C(O)C(O)C(O)C(=O)O [Example 1, tartrate]: 1.97
- O=C(C1CCC1)N1CCc2nc(OC3CCN(C4CCC4)CC3)sc2C1.O=C(O)C(O)C(O)C(=O)O [Example 5, tartrate]: 3.08

---

- test.description: Rodent pharmacokinetic study
- Type: in vivo, Male Wistar rats
- stated.conditions: whole blood; Wistar male rat, intravenous, 1 mg/kg, water, blood
// values below are reported half-life
endpoint.name: half-life (min)

• CCC(=O)N1CCc2nc(OC3CCN(C4CCC4)CC3)sc2C1.O=C(O)C(O)C(O)C(=O)O [Example 1] = 58.8
• O=C(C1CCOCC1)N1CCc2nc(OC3CCN(C4CCC4)CC3)sc2C1 [Example 28] = 40.2
• O=C(CN1CCOCC1)N1CCc2nc(OC3CCN(C4CCC4)CC3)sc2C1.O=C(O)C(O)C(O)C(=O)O [Example 12] = 172
• O=C(C1CCC1)N1CCc2nc(OC3CCN(C4CCC4)CC3)sc2C1.O=C(O)C(O)C(O)C(=O)O [Example 5] = 25.8
• CC(C)C(=O)N1CCc2nc(OC3CCN(C4CCC4)CC3)sc2C1.O=C(O)C(O)C(O)C(=O)O [Example 22] = 30
• O=C(C1CC1)N1CCc2nc(OC3CCN(C4CCC4)CC3)sc2C1.O=C(O)C(O)C(O)C(=O)O [Example 4] = 75

---

- target.system: Histamine H3 receptor (UniProt Q9Y5N1)
- test.description: Binding assay for human or rat histamine H3 receptor ([3H] R-α-methylhistamine)
- stated.conditions: [3H] R-α-methylhistamine 3.0 nM; rat brain frontal cortex or recombinant human receptor in CHO cells (not specified which)
Where a name gives a salt, the structure may show the parent alone.
endpoint.name: Ki

* O=C(CN1CCOCC1)N1CCc2nc(OC3CCN(C4CCC4)CC3)sc2C1.O=C(O)C(O)C(O)C(=O)O [Example 12, tartrate] | 8.44 nM
* O=C(C1CC1)N1CCCc2nc(OC3CCN(C4CCC4)CC3)sc21 [Example 33, tartrate] | 15.4 nM
* CC(C)N1CCC(Oc2nc3c(s2)CN(C(=O)C2CC2)CC3)CC1 [Example 9, tartrate] | 9.94 nM
* CCC(=O)N1CCc2nc(OC3CCN(C4CCC4)CC3)sc2C1.O=C(O)C(O)C(O)C(=O)O [Example 1, tartrate] | 3.83 nM
* c1cncc(N2CCc3nc(OC4CCN(C5CCC5)CC4)sc3C2)c1 [Example 27] | 0.75 nM
* COc1ccc(C(=O)N2CCc3nc(OC4CCN(C5CCC5)CC4)sc3C2)cc1 [Example 17, tartrate] | 21.2 nM
* O=C(c1ccncc1)N1CCc2nc(OC3CCN(C4CCC4)CC3)sc2C1 [Example 16, tartrate] | 33.5 nM
* CC(C)CC(=O)N1CCc2nc(OC3CCN(C4CCC4)CC3)sc2C1 [Example 7, tartrate] | 10.5 nM

---

- test.description: Rodent pharmacokinetic study
- Type: in vivo, Male Wistar rats
- stated.conditions: whole blood; Wistar male rat, per oral, 3 mg/kg, water, blood
endpoint.name: Cmax (ng/mL)

* O=C(C1CCC1)N1CCc2nc(OC3CCN(C4CCC4)CC3)sc2C1.O=C(O)C(O)C(O)C(=O)O [Example 5] | 101
* CC(C)C(=O)N1CCc2nc(OC3CCN(C4CCC4)CC3)sc2C1.O=C(O)C(O)C(O)C(=O)O [Example 22] | 189
* O=C(C1CC1)N1CCc2nc(OC3CCN(C4CCC4)CC3)sc2C1.O=C(O)C(O)C(O)C(=O)O [Example 4] | 199
* O=C(C1CCOCC1)N1CCc2nc(OC3CCN(C4CCC4)CC3)sc2C1 [Example 28] | 286
* CCC(=O)N1CCc2nc(OC3CCN(C4CCC4)CC3)sc2C1.O=C(O)C(O)C(O)C(=O)O [Example 1] | 329
* O=C(CN1CCOCC1)N1CCc2nc(OC3CCN(C4CCC4)CC3)sc2C1.O=C(O)C(O)C(O)C(=O)O [Example 12] | 151

---

// values below are reported Ki
- target.system: Histamine H3 receptor (UniProt Q9Y5N1)
- test.description: Binding assay for human or rat histamine H3 receptor ([3H] R-α-methylhistamine)
- stated.conditions: [3H] R-α-methylhistamine 3.0 nM; rat brain frontal cortex or recombinant human receptor in CHO cells (not specified which)
Where a name gives a salt, the structure may show the parent alone.
endpoint.name: Ki (nM)

* O=C(C1CC1)N1CCc2nc(OC3CCC(C4CCC4)CC3)sc2CC1 (centres unmarked) [Example 2, tartrate] | 2
* O=C(C1CC1)N1CCCC(Oc2nc3c(s2)CN(C2CCC2)CC3)C1 (centres unmarked) | 23.6
* O=C(N1CCOCC1)N1CCc2nc(OC3CCN(C4CCC4)CC3)sc2C1 [Example 29, tartrate] | 11.3
* CS(=O)(=O)N1CCc2nc(OC3CCN(C4CCC4)CC3)sc2C1 | 22.6
* CC(C)N1CCC(Oc2nc3c(s2)CN(C(=O)C2CCC2)CC3)CC1 | 7.69

---

- test.description: Rodent pharmacokinetic study
- Assay type: in vivo, Male Wistar rats
- stated.conditions: whole blood; Wistar male rat, intravenous, 1 mg/kg, water, blood
endpoint.name: AUC(0-t) (ng·h/mL)

• CCC(=O)N1CCc2nc(OC3CCN(C4CCC4)CC3)sc2C1.O=C(O)C(O)C(O)C(=O)O = 356
• O=C(C1CCOCC1)N1CCc2nc(OC3CCN(C4CCC4)CC3)sc2C1 = 282
• CC(C)C(=O)N1CCc2nc(OC3CCN(C4CCC4)CC3)sc2C1.O=C(O)C(O)C(O)C(=O)O = 110
• O=C(C1CCC1)N1CCc2nc(OC3CCN(C4CCC4)CC3)sc2C1.O=C(O)C(O)C(O)C(=O)O = 155
• O=C(CN1CCOCC1)N1CCc2nc(OC3CCN(C4CCC4)CC3)sc2C1.O=C(O)C(O)C(O)C(=O)O = 334
• O=C(C1CC1)N1CCc2nc(OC3CCN(C4CCC4)CC3)sc2C1.O=C(O)C(O)C(O)C(=O)O = 348

---

// values below are reported Cmax
- test.description: Rodent pharmacokinetic study
- Type: in vivo, Male Wistar rats
- stated.conditions: whole blood; Wistar male rat, intravenous, 1 mg/kg, water, blood
endpoint.name: Cmax (ng/mL)

* CC(C)C(=O)N1CCc2nc(OC3CCN(C4CCC4)CC3)sc2C1.O=C(O)C(O)C(O)C(=O)O | 205
* CCC(=O)N1CCc2nc(OC3CCN(C4CCC4)CC3)sc2C1.O=C(O)C(O)C(O)C(=O)O | 436
* O=C(C1CCC1)N1CCc2nc(OC3CCN(C4CCC4)CC3)sc2C1.O=C(O)C(O)C(O)C(=O)O | 287
* O=C(CN1CCOCC1)N1CCc2nc(OC3CCN(C4CCC4)CC3)sc2C1.O=C(O)C(O)C(O)C(=O)O | 237
* O=C(C1CCOCC1)N1CCc2nc(OC3CCN(C4CCC4)CC3)sc2C1 | 370
* O=C(C1CC1)N1CCc2nc(OC3CCN(C4CCC4)CC3)sc2C1.O=C(O)C(O)C(O)C(=O)O | 320
